Some molecules, each annotated with its measured GI50.
Test system: SW-620
Procedure Summary: NCI tumour cell line growth inhibition, 48 h
Active and inactive are the calls of the source. Rule as the data show it: active = GI50 up to about 1.1 µM and inactive = higher.

INSERT INTO results (molecule, experimental_system, endpoint_value) VALUES
  ('CC(Nc1ccc(Cl)c(Cl)c1)c1ccncc1 (stereo not given)', 'SW-620', '20.7 µM (inactive)'),
  ('CC(C)CC1c2[nH]c3ccccc3c2C[C@H]2C(=O)NC(CCCCNC(=O)OC(C)(C)C)C(=O)N12 (stereo not given in full)', 'SW-620', '41 µM (inactive)'),
  ('O=C(Nc1ccc(Cl)cc1)c1cc(S(=O)(=O)Nc2n[nH]c(Nc3ccc4ccccc4c3)n2)c(SSc2cc(Cl)c(C(=O)Nc3ccc(Cl)cc3)cc2S(=O)(=O)Nc2n[nH]c(Nc3ccc4ccccc4c3)n2)cc1Cl', 'SW-620', '21.3 µM (inactive)'),
  ('O=c1cc(-c2ccccc2)[nH]c2cc(F)c(F)cc12', 'SW-620', '0.355 µM (active)'),
  ('O=C1C=CC(O)C2C1CC13SSC4(CC5C(=O)C=CC(O)C5N4C1=O)C(=O)N23 (stereo not given)', 'SW-620', '0.0324 µM (active)'),
  ('CCSC1(SCC)CCN(/C=N/C(C)(C)C)C1', 'SW-620', '19.5 µM (inactive)'),
  ('BrC1=CC=C2NC=CC3=CC=NC1C32 (stereo not given)', 'SW-620', '8.95 µM (inactive)'),
  ('CCOC(=O)C(C)(C)Oc1ccc(Cl)cc1 [CLOFIBRATE]', 'SW-620', '614 µM (inactive)'),
  ('COC(=O)c1ccc(NC(=O)O/N=C(\Cl)C(C)C)cc1', 'SW-620', '1.93 µM (inactive)');

Request: Give SW-620 GI50 for Nc1ncnc2c1ncn2CC(OCP(=O)(O)O)Oc1ccccc1 (stereo not given)
Result: > 100 µM (inactive)

* * *

System: SF-268
Procedure Summary: NCI tumour cell line growth inhibition, 48 h
Active and inactive are the calls of the source. Cut-off read from the data, not from the text of the source: active = GI50 up to about 1.1 µM and inactive = higher.
Observation Type: GI50

INSERT INTO results (compound, endpoint_value) VALUES
  ('Cc1c(Cc2ccccc2)n(C(C)OCCN(OC(=O)Oc2ccccc2)C(=O)Oc2ccccc2)c(=O)[nH]c1=O (stereo not given)', '14.7 µM (inactive)'),
  ('Cc1ccc(S(=O)(=O)N/N=C2/CC3CCC4CC2CC34)cc1 (stereo not given)', '> 100 µM (inactive)'),
  ('O=c1[nH][nH]c(=O)n1Cc1ccccc1', '> 100 µM (inactive)'),
  ('N#Cc1cn(-c2c3ccccc3nc3ccccc23)c(=O)[nH]c1=O', '4.74 µM (inactive)');

Request: Which GI50 is listed for O=C(O)CC(CC(=O)O)C(=O)O ?
Result: > 100 µM (inactive)

* * *

Tested on: HT-29
Procedure Summary: NCI tumour cell line growth inhibition, 48 h
Activity calls are given as the source filed them. Rule as the data show it: active = GI50 up to about 1.1 µM and inactive = higher.
Assign a class; possible classes are True (active), False (inactive)

INSERT INTO assay_data (compound, discrete_label) VALUES
  ('CN(Cc1cnc2nc(N)nc(N)c2n1)c1ccc(C(=O)NC2CCCCC2)cc1', 'False'),
  ('CC(=O)OC1(C)N=NC2(CCCCC2)O1 (stereo unspecified)', 'False'),
  ('Cc1ccc(-c2nnc(-c3nn(-c4ccccc4)c4nc5ccccc5nc34)o2)cc1', 'False'),
  ('CCCCCCCCCCCCCCC(O)C[N+](C)(CCO)CCO (stereo unspecified)', 'False');

Request: Outcome? CCCCOP(C)(=O)C(NC(=O)OCC)(C(F)(F)F)C(F)(F)F (stereo unspecified)
Result: False

Request: Outcome? CCP(=O)(CC)C(Cl)Cl
Result: False

Request: Outcome? C=C1C(=O)OC2C/C(C)=C/CC/C(C)=C/CCC3(COC(C)=O)OC3CC12 (stereo unspecified)
Result: False

Request: Outcome? CN(C)c1ccc([S+]([O-])Nc2ccccc2)cc1 (stereo unspecified)
Result: False

Request: Outcome? O=C(O)CCSC(=O)Nc1cccc2ccccc12
Result: False

Request: Outcome? Cc1c(O)c(OC2OC(CO)C(O)C(O)C2O)cc2c1C=C[C@@H]1[C@@]2(C)C(=O)C[C@]2(C)[C@@H]([C@@](C)(O)C(O)/C=C/C(C)(C)O)[C@H](O)C[C@@]12C (stereo partly specified)
Result: False

* * *

System: NCI-H460
Procedure Summary: NCI tumour cell line growth inhibition, 48 h
Calls of active or inactive are those of the source. Cut-off read from the data, not from the text of the source: active = GI50 up to about 1.1 µM and inactive = higher. Peptide text beside a SMILES is read from it.
Observation Type: GI50

# example entries with known answers
INSERT INTO measurements (molecule, observation_type, endpoint_value) VALUES
  ('c1ccc2c(c1)c1c(n2CCOCCN2CCCC2)CCCC1', 'GI50', '15 µM (inactive)'),
  ('Cc1[nH]c2ccccc2c1/C=N/c1ccc(Oc2ccccc2)cc1', 'GI50', '20.4 µM (inactive)'),
  ('CC(=O)NC(CS)C(=O)NC(CO)C(=O)NC(CO)C(=O)NC(Cc1c[nH]c2ccccc12)C(=O)N1CCCC1C(=O)NC(CO)C(=O)NC(Cc1c[nH]c2ccccc12)C(=O)NC(Cc1c[nH]cn1)C(=O)NC(CO)C(=O)NC(Cc1c[nH]c2ccccc12)C(=O)NCC(=O)NCC(=O)NC(C)C(=O)NC(CCC(N)=O)C(=O)NC(CCCCN)C(=O)NC(C)C(=O)NC(CCCNC(=N)N)C(=O)NC(CCCCN)C(N)=O (configuration not stated) (Ac-CSSWPSWHSWGGAQKARK-NH2; configuration not given here)', 'GI50', '12.4 µM (inactive)'),
  ('CNC(=O)OCc1nc(SSC(C)(C)C)n(C)c1COC(=O)NC', 'GI50', '10.7 µM (inactive)'),
  ('CC(=O)N1N=C(c2c(O)ccc3ccccc23)CC1C(=O)c1ccco1 (configuration not stated)', 'GI50', '34.5 µM (inactive)');

Request: Which GI50 is listed for NCCCc1c(-c2ccccc2)[nH]c(N)nc1=O ?
Result: > 100 µM (inactive)

Request: Which GI50 is listed for COc1cc(C)cc2c1C(=O)C(NC(C)=O)=CC2=O ?
Result: > 100 µM (inactive)

* * *

Tested on: COLO 205
Procedure Summary: NCI tumour cell line growth inhibition, 48 h
Active and inactive are the calls of the source. No stated cut-off is given here; in the data, active = GI50 up to about 1.1 µM and inactive = higher.
Assign a class; possible classes are label 1 for active, label 0 for inactive

Worked cases, answers included:
INSERT INTO results (compound, discrete_label) VALUES
  ('COc1cc(C2c3cc4c(cc3[C@@H](Nc3ccc(N5CCOCC5)cc3)C3COC(=O)[C@H]23)OCO4)cc(OC)c1O (stereo partly drawn)', 'label 0'),
  ('O=c1[nH]c(=O)n([C@H]2C[C@H](O)[C@@H](CO)O2)cc1Br', 'label 0');

Request: Outcome? COc1ccc(Nc2nn3c(=O)c4c(C)c(C)sc4nc3s2)cc1
Result: label 0

Request: Outcome? Cc1c(C)c(S(=O)(=O)N(CCCCCCN)OCCCN)c(C)c2c1OC(C)(C)CC2
Result: label 0

Request: Outcome? O=C(O)c1ccc(C(=O)O)c(C(=O)Nc2ccc3c(c2)C(=O)c2ccccc2-3)c1
Result: label 0

Request: Outcome? COc1cc(/C=C2\NC(=O)C(Cc3cc(OC)c(OC)c(C)c3OC)N(C(C)=O)C2=O)c(OC)c(C)c1OC (stereo not drawn)
Result: label 0

Request: Outcome? CC(=O)N1N=C(c2c(O)ccc3ccccc23)CC1C(=O)c1ccco1 (stereo not drawn)
Result: label 0

* * *

System: A549
Procedure Summary: NCI tumour cell line growth inhibition, 48 h
Active and inactive are the calls of the source. Rule as the data show it: active = GI50 up to about 1.1 µM and inactive = higher.
Assign a class; possible classes are active, inactive

Worked cases, answers included:
INSERT INTO results (compound, discrete_label) VALUES
  ('COC(=O)C(NC(=O)CSc1nnc(COc2ccc(Cl)cc2)n1-c1ccccc1)C(C)C (centres undefined)', 'inactive'),
  ('COc1cccc(C2CC(=O)c3cc(N4CCCC4)ccc3N2)c1 (centres undefined)', 'active'),
  ('Nc1nn(CC(O)CO)c(=O)s1 (centres undefined)', 'inactive');

Request: Outcome? O=C(NNc1ccccc1)/C(=C/c1ccc2c(c1)OCO2)NC(=O)c1ccccc1
Result: inactive

Request: Outcome? CN1/C(=C/C=C/C=C/C=C2C(=O)c3ccccc3C2=O)C(C)(C)c2ccccc21
Result: inactive

* * *

Test system: NCI-H522
Procedure Summary: NCI tumour cell line growth inhibition, 48 h
Activity calls are given as the source filed them. No stated cut-off is given here; in the data, active = GI50 up to about 1.1 µM and inactive = higher.
Some compounds, each annotated with its measured GI50.

INSERT INTO results (compound, observation_type, endpoint_value) VALUES
  ('COc1cccc(/C=C2\CCCc3ccccc3C2=O)c1', 'GI50', '15 µM (inactive)'),
  ('CC(C)(C)NCC(O)COc1cccc2[nH]c(C#N)cc12 (stereo unspecified)', 'GI50', '27.2 µM (inactive)'),
  ('O=C(CSCC(=O)N/N=C/c1ccc2c(c1)OCO2)N/N=C/c1ccc2c(c1)OCO2', 'GI50', '64.1 µM (inactive)'),
  ('Oc1ncnc2c1nnn2CCCCCCCCCCCCn1nnc2c(O)ncnc21', 'GI50', '20.4 µM (inactive)'),
  ('CNC(=O)OCc1nc(SSC(C)(C)C)n(C)c1COC(=O)NC', 'GI50', '1.16 µM (inactive)');

Consider the record given below.
Request: Give NCI-H522 GI50 for Cc1ccc(O)c(C2=CC(c3cccc(Br)c3)SC(=N)N2)c1 (stereo unspecified)
Result: 16 µM (inactive)
